Target: Human TREM2 (Homo sapiens, UniProt Q9NZC2)
Construct: expressed in transfected cells
Sequence (Q9NZC2 19-230): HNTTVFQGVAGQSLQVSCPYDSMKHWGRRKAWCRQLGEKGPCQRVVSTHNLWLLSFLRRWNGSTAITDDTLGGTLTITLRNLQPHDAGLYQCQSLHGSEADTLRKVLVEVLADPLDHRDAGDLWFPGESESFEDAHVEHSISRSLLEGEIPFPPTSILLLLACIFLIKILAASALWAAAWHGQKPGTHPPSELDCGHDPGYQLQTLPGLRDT
Sequence (O43914 22-113 partner): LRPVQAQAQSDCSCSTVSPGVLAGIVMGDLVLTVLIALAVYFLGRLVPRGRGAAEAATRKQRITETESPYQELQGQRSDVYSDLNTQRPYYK
Assay: Human TREM2 activity: cellular phosphorylation of Syk (AlphaLISA SureFire Ultra p-SYK) in HEK293/DAP12+TREM2 stable cell line
Assay type: cell-based
Conditions: HEK293; maximal response relative to reference agonist example 1B (remaining examples); read-out: Emax
property: Emax

Solved entries (count: 6):
{"columns": ["molecule", "Emax"],
 "data": [
  ["Cc1nc2c(-c3ccc(Cl)cc3F)nc(N3CC(Oc4cnn(C)c4)C3)nc2c(=O)n1C", "75 to 110%"],
  ["Cc1nc2c(-c3ccc(Cl)cc3F)nc(N3C[C@@H](C)O[C@@H](c4cnn(C5CC5)c4)C3)nc2c(=O)n1C (single isomer, unassigned) [Example 178B]", "75 to 110%"],
  ["Cc1cc([C@H]2CN(c3cc4c(=O)n(C)c(C)nc4c(-c4ccc(C(F)F)nc4)n3)C[C@@H](C)O2)ccn1 (single isomer, unassigned) [Example 192B]", "75 to 110%"],
  ["Cc1nc2c(-c3ccc(Cl)cc3F)nc(N3CCOC4(CCN(C)CC4)C3)nc2c(=O)n1C", "< 75%"],
  ["Cc1nc2c(-c3ccc(F)cc3F)nc(N3C[C@@H](c4cnn(C5CC5)c4)O[C@@H](C)C3)cc2c(=O)n1C (single isomer, unassigned) [Example 190A]", "75 to 110%"],
  ["Cc1nc2c(-c3ccc(Cl)cc3F)cc([C@@H]3CCO[C@H](c4cnn(C5CC5)c4)C3)cc2c(=O)n1C (single isomer, unassigned) [Example 119A]", "< 75%"]
]}

Problem: Recorded Emax of Cc1cc([C@@H]2CN(c3nc(-c4ccc(C(F)(F)F)nc4)c4nc(C)n(C)c(=O)c4n3)CCO2)ccn1 (single isomer, unassigned) [Example 22A] , please.
Solution: 75 to 110%

Problem: Next record, please: Cc1cc([C@@H]2CN(c3cc4c(=O)n(C)c(C)nc4c(-c4ccc(C(F)(F)F)cc4F)n3)CCO2)ccn1 (single isomer, unassigned) [Example 137A]
Solution: 75 to 110%

Problem: Next record, please: Cc1nc2c(-c3ccc(Cl)cc3F)nc(N3CCO[C@@H](c4cnn(C5CC5)c4)C3)nc2c(=O)n1C (single isomer, unassigned) [Example 26B]
Solution: 75 to 110%

Problem: Next record, please: Cc1cc([C@@H]2CN(c3nc(-c4cc(F)c(F)cc4F)c4nc(C(F)(F)F)n(C)c(=O)c4n3)CCO2)ccn1 (single isomer, unassigned) [Example 155A]
Solution: 75 to 110%

Problem: Next record, please: Cn1cc([C@H]2CN(c3nc(-c4ccc(F)cc4F)c4nc(C(F)(F)F)n(C)c(=O)c4n3)CC3(CC3)O2)cn1 (single isomer, unassigned) [Example 165B]
Solution: 75 to 110%

Problem: Next record, please: "Cc1nc2c(-c3ccc(Cl)cc3F)nc(N3CCOC4(CCCC4)C3)nc2c(=O)n1C"
Solution: < 75%

###

Biological target: Human TREM2 (Homo sapiens, UniProt Q9NZC2)
Construct: expressed in transfected cells
Assay: Human TREM2 activity: cellular phosphorylation of Syk (AlphaLISA SureFire Ultra p-SYK) in HEK293/DAP12+TREM2 stable cell line
Format: cell-based
Conditions: HEK293; maximal response relative to reference agonist example 1B (remaining examples); read-out: Emax
property: Emax

Solved entries (count: 3):
{"columns": ["compound", "result"],
 "data": [
  ["Cc1nc2c(-c3ccc(Cl)cc3F)cc(N3C[C@H](c4cnn(C)c4)OC(C)(C)C3)nc2c(=O)n1C (single isomer, unassigned) [Example 142B]", "75 to 110%"],
  ["Cc1nc2c(-c3ccc(Cl)cc3F)nc([C@H]3CCO[C@@H](c4cnn(C5CC5)c4)C3)nc2c(=O)n1C (single isomer, unassigned) [Example 24B]", "< 75%"],
  ["Cn1cc([C@H]2CN(c3nc(-c4ccc(Cl)cc4F)c4nc(C(F)(F)F)n(C)c(=O)c4n3)CCO2)cn1 (single isomer, unassigned) [Example 103]", "75 to 110%"]
]}

Problem: Quick check: Emax on Human TREM2 (Homo sapiens, UniProt Q9NZC2), item Cc1cc([C@H]2CN(c3cc4c(=O)n(C)c(C)nc4c(-c4ccc(F)cc4F)n3)CC(C)(C)O2)ccn1 (single isomer, unassigned) [Example 159B] ?
Solution: < 75%

Problem: Next record, please: Cc1nc2c(-c3ccc(Cl)cc3F)nc(N3CCCc4ccncc4C3)nc2c(=O)n1C [Example 86]
Solution: < 75%

Problem: Next record, please: Cc1nc2c(-c3ccc(F)cc3F)nc(N3C[C@H](c4cnn(C)c4)OC(F)(F)C3)nc2c(=O)n1C (single isomer, unassigned) [Example 156B]
Solution: 75 to 110%
